- System Tested: HLA-A*68:02
- Assay Procedure: IEDB peptide-MHC binding, purified MHC/direct/fluorescence; filed as Kd, often an IC50 or EC50 that approximates it; bounds were set here for any values at or beyond the usual limits of such assays
- Condition Parameters: source organism: Francisella tularensis subsp. holarctica LVS
Parameter Measured: Kd

Value sought: Kd, system HLA-A*68:02, item `KRINSLIKY` . Result: ≥ 20 µM

###

- System Tested: HLA-B*57:01
- Assay Procedure: IEDB peptide-MHC binding, purified MHC/competitive/fluorescence; filed as Kd, often an IC50 or EC50 that approximates it; bounds were set here for any values at or beyond the usual limits of such assays
- Condition Parameters: source organism: Seoul virus 80-39
pKd: −log10 of the molar value.
Parameter Measured: pKd

Consider `LVRDITESL` . Its measured pKd is ≤ 4.70

###

- System Tested: HLA-A*02:03
- Assay Procedure: IEDB peptide-MHC binding, purified MHC/competitive/radioactivity; filed as Kd, often an IC50 or EC50 that approximates it; bounds were set here for any values at or beyond the usual limits of such assays
- Condition Parameters: source organism: Lymphocytic choriomeningitis virus (strain Armstrong)
Parameter Measured: pKd
pKd field: float, defined as -log10 of concentration (mol/L).

>  <Input Sequence>
FMLNVSYLC

>  <pKd>
5.90

$$$$

Next sequence, pKd to be filled in.
Consider `GTMPSLTMAC` . Its measured pKd is 4.79

###

- System Tested: HLA-B*39:01
- Assay Procedure: IEDB peptide-MHC binding, purified MHC/direct/fluorescence; filed as Kd, often an IC50 or EC50 that approximates it; bounds were set here for any values at or beyond the usual limits of such assays
- Condition Parameters: source organism: Yersinia enterocolitica subsp. enterocolitica 8081
pKd: −log10 of the molar value.
Parameter Measured: pKd

Consider `LAYLAGWII` . Its measured pKd is ≤ 4.70

###

- System Tested: HLA-A*02:01
- Assay Procedure: IEDB peptide-MHC binding, purified MHC/competitive/fluorescence; filed as Kd, often an IC50 or EC50 that approximates it; bounds were set here for any values at or beyond the usual limits of such assays
- Condition Parameters: source organism: Orthohantavirus andesense
Parameter Measured: Kd

Consider `NALEKALRW` . Its measured Kd is ≥ 20 µM

Consider `VSANVKGNW` . Its measured Kd is ≥ 20 µM

###

- System Tested: HLA-A*68:01
- Assay Procedure: IEDB peptide-MHC binding, purified MHC/competitive/radioactivity; filed as Kd, often an IC50 or EC50 that approximates it; bounds were set here for any values at or beyond the usual limits of such assays
- Condition Parameters: source organism: Dengue virus 3 Martinique/1243/1999
Parameter: Kd. Scope: all listed entries.
Give your result in nM as a bare value.

>  <Input Sequence>
VSILASSLLR

>  <System Tested>
HLA-A*68:01

>  <Units>
nM

>  <Kd>
468

$$$$

Next sequence, Kd to be filled in.
Consider `RTYSDPLALK` . Its measured Kd is 29.3

###

- System Tested: HLA-B*08:01
- Assay Procedure: IEDB peptide-MHC binding, purified MHC/direct/fluorescence; filed as Kd, often an IC50 or EC50 that approximates it; bounds were set here for any values at or beyond the usual limits of such assays
- Condition Parameters: source organism: Escherichia coli O157:H7
pKd: −log10 of the molar value.
Parameter Measured: pKd

Consider `GITGGHIPK` . Its measured pKd is ≤ 4.70

###

Parameter: pKd. Scope: all listed entries.
- System Tested: HLA-B*35:01
- Assay Procedure: IEDB peptide-MHC binding, purified MHC/competitive/radioactivity; filed as Kd, often an IC50 or EC50 that approximates it; bounds were set here for any values at or beyond the usual limits of such assays
- Condition Parameters: source organism: Dengue virus 4 Philippines/H241/1956
pKd field: float, defined as -log10 of concentration (mol/L).

>  <Input Sequence>
LPDYGELTLD

>  <pKd>
5.00

$$$$

Next sequence, pKd to be filled in.
Value sought: pKd, system HLA-B*35:01, item `QPKPGTRMVM` . Result: 5.91

###

- System Tested: HLA-A*02:01
- Assay Procedure: IEDB peptide-MHC binding, purified MHC/direct/fluorescence; filed as Kd, often an IC50 or EC50 that approximates it; bounds were set here for any values at or beyond the usual limits of such assays
- Condition Parameters: source organism: Bacillus anthracis
Parameter Measured: Kd

Consider `YFENSDLNL` . Its measured Kd is ≥ 20 µM

###

- System Tested: HLA-A*11:01
- Assay Procedure: IEDB peptide-MHC binding, purified MHC/competitive/fluorescence; filed as Kd, often an IC50 or EC50 that approximates it; bounds were set here for any values at or beyond the usual limits of such assays
- Condition Parameters: source organism: Bacillus anthracis str. A0488
pKd: −log10 of the molar value.
Parameter Measured: pKd

Consider `FVMPIFEQI` . Its measured pKd is ≤ 5.30

###

- System Tested: HLA-B*58:01
- Assay Procedure: IEDB peptide-MHC binding, purified MHC/competitive/radioactivity; filed as Kd, often an IC50 or EC50 that approximates it; bounds were set here for any values at or beyond the usual limits of such assays
- Condition Parameters: source organism: Dengue virus 4 Philippines/H241/1956
Parameter Measured: Kd (µM)
Give your result in µM as a bare value.

>  <Input Sequence>
LSSTRVPNYN

>  <Kd [µM]>
0.202

$$$$

Consider `TASGKLVTQW` . Its measured Kd is 0.0226

###

- System Tested: HLA-B*44:03
- Assay Procedure: IEDB peptide-MHC binding, purified MHC/competitive/fluorescence; bounds were set here for any values at or beyond the usual limits of such assays
- Condition Parameters: source organism: Mus musculus
pIC50: −log10 of the molar value.
Parameter Measured: pIC50

Consider `VALFSSCPVAY` . Its measured pIC50 is ≤ 4.70

###

Parameter: pKd. Scope: all listed entries.
- System Tested: HLA-B*27:03
- Assay Procedure: IEDB peptide-MHC binding, purified MHC/competitive/fluorescence; filed as Kd, often an IC50 or EC50 that approximates it; bounds were set here for any values at or beyond the usual limits of such assays
- Condition Parameters: source organism: Orthohantavirus andesense
pKd: −log10 of the molar value.

>  <Input Sequence>
NALEKALRW

>  <System Tested>
HLA-B*27:03

>  <pKd>
≤ 4.70

$$$$

Next sequence, pKd to be filled in.
Consider `VSANVKGNW` . Its measured pKd is ≤ 4.70

###

- System Tested: HLA-A*31:01
- Assay Procedure: IEDB peptide-MHC binding, purified MHC/direct/fluorescence; filed as Kd, often an IC50 or EC50 that approximates it; bounds were set here for any values at or beyond the usual limits of such assays
- Condition Parameters: source organism: Homo sapiens
Parameter Measured: Kd (nM)
Give your result in nM as a bare value.

Consider `RYFSVTRPL` . Its measured Kd is 512

###

Parameter: Kd. Scope: all listed entries.
- System Tested: HLA-A*31:01
- Assay Procedure: IEDB peptide-MHC binding, purified MHC/direct/fluorescence; filed as Kd, often an IC50 or EC50 that approximates it; bounds were set here for any values at or beyond the usual limits of such assays
- Condition Parameters: source organism: Camelpox virus M-96

>  <Input Sequence>
FVFEATKLY

>  <Parameter Measured>
Kd

>  <Meas Value>
≥ 20 µM

$$$$

Next sequence, Kd to be filled in.
Consider `YERGNIIIF` . Its measured Kd is ≥ 20 µM

###

- System Tested: HLA-A*01:01
- Assay Procedure: IEDB peptide-MHC binding, purified MHC/direct/fluorescence; filed as Kd, often an IC50 or EC50 that approximates it; bounds were set here for any values at or beyond the usual limits of such assays
- Condition Parameters: source organism: Francisella tularensis subsp. holarctica LVS
pKd: −log10 of the molar value.
Parameter Measured: pKd

Consider `KRINSLIKY` . Its measured pKd is ≤ 4.70

###

- System Tested: HLA-A*30:01
- Assay Procedure: IEDB peptide-MHC binding, purified MHC/competitive/radioactivity; filed as Kd, often an IC50 or EC50 that approximates it; bounds were set here for any values at or beyond the usual limits of such assays
- Condition Parameters: source organism: Mammarenavirus guanaritoense
Parameter Measured: pKd
pKd field: float, defined as -log10 of concentration (mol/L).

Consider `ELLSYCVSLF` . Its measured pKd is 5.97

###

- System Tested: HLA-B*44:02
- Assay Procedure: IEDB peptide-MHC binding, purified MHC/direct/fluorescence; filed as Kd, often an IC50 or EC50 that approximates it; bounds were set here for any values at or beyond the usual limits of such assays
- Condition Parameters: source organism: Campylobacter jejuni RM1221
pKd: −log10 of the molar value.
Parameter Measured: pKd

Consider `ALIVAIWDK` . Its measured pKd is ≤ 4.70

The origin of these recorded values is the Immune Epitope Database (IEDB).
